Biological target: T1, OX1149-190 (human)
T1 peptide: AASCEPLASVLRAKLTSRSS
Test: cell-based or functional assay
assay-endpoint: Clone size (percent repertoire), IFNγ+ sorted T cells after peptide stimulation

Here's what some known entries look like.
OX1149 Peptide 190 clone 3 TCR (TCR, V domains shown) V domain 1: GENVEQHPSTLSVQEGDSAVIKCTYSDSASNYFPWYKQELGKRPQLIIDIRSNVGEKKDQRIAVTLNKTAKHFSLHITETQPEDSAVYFCAARGGSNYKLTFGKGTLLTVNP V domain 2: DAGVIQSPRHEVTEMGQEVTLRCKPISGHDYLFWYRQTMMRGLELLIYFNNNVPIDDSGMPEDRFSAKMPNASFSTLKIQPSEPRDSAVYFCASSTGGEQYFGPGTRLTVTE ... 9 % of repertoire
OX1149 Peptide 190 clone 4 TCR (TCR, V domains shown) V domain 1: SQQGEEDPQALSIQEGENATMNCSYKTSINNLQWYRQNSGRGLVHLILIRSNEREKHSGRLRVTLDTSKKSSSLLITASRAADTASYFCATKGGNNRLAFGKGNQVVVIP V domain 2: EPEVTQTPSHQVTQMGQEVILRCVPISNHLYFYWYRQILGQKVEFLVSFYNNEISEKSEIFDDQFSVERPDGSNFTLKIRSTKLEDSAMYFCASSAWTGETGYTFGSGTRLTVVE ... 5.7 % of repertoire

Fill in: Clone size (percent repertoire), IFNγ+ sorted T cells after peptide stimulation of OX1149 Peptide 190 clone 1 TCR (TCR, V domains shown) V domain 1: SQQGEEDPQALSIQEGENATMNCSYKTSINNLQWYRQNSGRGLVHLILIRSNEREKHSGRLRVTLDTSKKSSSLLITASRAADTASYFCATDEAAGNKLTFGGGTRVLVKP V domain 2: EPEVTQTPSHQVTQMGQEVILRCVPISNHLYFYWYRQILGQKVEFLVSFYNNEISEKSEIFDDQFSVERPDGSNFTLKIRSTKLEDSAMYFCASKRESLATGELFFGEGSRLTVLE is ___ 18.3 % of repertoire
